- PROTOCOL DETAILS: qHTS assay to identify small molecule antagonists of the progesterone receptor (PR) signaling pathway - cell viability counter screen (AID 1346798); note: nearly all actives have a fitted effect of over 50% in size
- MEASUREMENT CONDITIONS: PR-UAS-bla HEK293T viability, CellTiter-Glo luminescence, 16 h; series mostly up to 92.4 µM
Records with an inconclusive call do not appear. The source made the active and inactive calls. Calls come from the whole dose curve; as a rule, active = well fitted cell-killing curve with a large enough effect in the repeat runs; inconclusive = weak or mixed curves, or effect the other way; inactive = no such curve, though single readings can be large or run the other way.
Classes used: label 1 (active), label 0 (inactive)

smiles_input=Cc1cc(C(F)(C(F)(F)F)C(F)(F)F)ccc1NC(=O)c1cccc(I)c1C(=O)NC(C)(C)CS(C)(=O)=O class="label 0"
smiles_input=C[C@]12CC[C@H](O)C[C@H]1CC[C@@H]1[C@@H]2C[C@@H](O)[C@]2(C)[C@@H](C3=CC(=O)OC3)CC[C@]12O class="label 1"
smiles_input=COc1ccc(OC)c(C=O)c1 class="label 0"
smiles_input=[Hg+2].[I-].[I-] class="label 1"
smiles_input=Cc1ccc(OP(=O)(Oc2ccccc2)Oc2ccccc2)cc1 class="label 0"
